All values here come from ChEMBL document CHEMBL5512651.

Reported values of IC50 at 4 days for individual entries
- experimentSummary: Antiproliferative activity against HEK293 cells incubated for 4 days by CCK8 assay
- Type: toxicity, cell-based
- conditionsUsed: human
The response must be a number in µM with no trailing unit.

See these solved cases before continuing.
| chemicalStructure | measurementUnits | measurement |
| --- | --- | --- |
| COc1ccc(C2=N[C@@H](c3ccc(Cl)cc3)[C@@H](c3ccc(Cl)cc3)N2C(=O)N2CCNC(=O)C2)c(OC(C)C)c1 | µM | 26.7 |
| COc1cc(C(=O)O)ccc1N1CN2[C@@H](CC(C)(C)C)[C@@]3(CNc4cc(Cl)ccc43)[C@@H](c3cccc(Cl)c3)[C@@H]2C1=O | µM | 9.65 |
| CCC(C)(C)C[C@@H]1N2CN(c3ccc(C(=O)O)cc3OC)C(=O)[C@H]2[C@H](c2cccc(Cl)c2)[C@]12CNc1cc(Cl)ccc12 | µM | 9.53 |

[ask] I have this compound here, `COc1cc(NC(=O)[C@@H]2N[C@@H](CC(C)(C)C)[C@](C#N)(c3ccc(Cl)cc3F)[C@H]2c2cccc(Cl)c2F)ccc1C(=O)O` , and I need its recorded IC50 at 4 days.
[reply] 9.08

###

- testedSystem: Tumour suppressor p53/oncoprotein Mdm2 (Homo sapiens)
- Sequence (P04637 whole entry): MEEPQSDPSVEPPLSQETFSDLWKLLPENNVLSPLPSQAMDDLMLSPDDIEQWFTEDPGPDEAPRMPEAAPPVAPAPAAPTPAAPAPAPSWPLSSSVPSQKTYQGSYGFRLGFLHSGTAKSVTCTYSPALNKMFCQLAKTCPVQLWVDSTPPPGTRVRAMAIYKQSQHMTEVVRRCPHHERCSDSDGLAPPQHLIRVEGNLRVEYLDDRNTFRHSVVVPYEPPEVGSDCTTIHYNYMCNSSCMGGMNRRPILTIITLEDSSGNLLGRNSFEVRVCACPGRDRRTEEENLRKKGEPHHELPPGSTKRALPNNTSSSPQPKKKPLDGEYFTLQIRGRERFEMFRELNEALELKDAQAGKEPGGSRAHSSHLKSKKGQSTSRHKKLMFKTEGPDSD
- Sequence (Q00987 whole entry): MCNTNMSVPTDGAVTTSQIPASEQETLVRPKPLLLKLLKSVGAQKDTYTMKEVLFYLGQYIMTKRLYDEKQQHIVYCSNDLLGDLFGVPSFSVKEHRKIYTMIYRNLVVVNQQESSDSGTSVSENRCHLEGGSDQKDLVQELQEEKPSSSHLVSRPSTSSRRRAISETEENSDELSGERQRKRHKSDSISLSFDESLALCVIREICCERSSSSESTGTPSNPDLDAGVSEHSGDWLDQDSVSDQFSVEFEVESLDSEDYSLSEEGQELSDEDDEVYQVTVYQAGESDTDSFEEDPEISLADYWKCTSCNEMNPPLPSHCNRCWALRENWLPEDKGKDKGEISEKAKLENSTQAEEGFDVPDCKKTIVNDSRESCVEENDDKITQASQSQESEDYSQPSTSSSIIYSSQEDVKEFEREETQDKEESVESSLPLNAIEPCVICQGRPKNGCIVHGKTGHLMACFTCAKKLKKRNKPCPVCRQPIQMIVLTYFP
- experimentSummary: Inhibition of MDM2/p53 (unknown origin) interaction by fluorescence polarization assay
endpoint: pKi
Scale: negative log10 of molar concentration, which is what pKi denotes.

See these solved cases before continuing.
| chemicalStructure | pKi |
| --- | --- |
| COc1cc(C(=O)O)ccc1N1CN2[C@@H](CC(C)(C)C)[C@@]3(CNc4ccc(Cl)cc43)[C@@H](c3cccc(Cl)c3Cl)[C@@H]2C1=O | 6.82 |
| COc1cc(C(=O)O)ccc1N1CN2[C@@H](CC3(C)CCCC3)[C@@]3(CNc4cc(Cl)ccc43)[C@@H](c3cccc(Cl)c3)[C@@H]2C1=O | 9.22 |
| COc1cc(C(=O)O)ccc1N1CN2[C@@H](CC(C)(C)C)[C@@]3(CNc4cc(Cl)ccc43)[C@@H](c3ccccc3F)[C@@H]2C1=O | 7.83 |
| CCC(C)(C)C[C@@H]1N2CN(c3ccc(C(=O)O)cc3OC)C(=O)[C@H]2[C@H](c2cccc(Cl)c2)[C@]12CNc1cc(Cl)ccc12 | 9.00 |
| COc1cc(C(=O)O)ccc1N1CN2[C@@H](CC(C)(C)C)[C@@]3(CNc4cc(Cl)ccc43)[C@@H](c3cccc(F)c3)[C@@H]2C1=O | 8.92 |
| COc1cc(C(=O)O)ccc1N1CN2[C@@H](CC(C)(C)C)[C@@]3(CNc4cc(Cl)ccc43)[C@@H](c3cccc(C)c3)[C@@H]2C1=O | 8.28 |
| COc1cc(C(=O)O)ccc1N1CN2[C@@H](CC(C)(C)C)[C@@]3(CNc4cc(Cl)ccc43)[C@@H](c3cccc(Cl)c3F)[C@@H]2C1=O | 8.51 |
| COc1cc(C(=O)O)ccc1N1CN2[C@@H](CC(C)(C)C)[C@@]3(CNc4cc(Cl)ccc43)[C@@H](c3cccc(F)c3F)[C@@H]2C1=O | 8.51 |

# next compound below
[ask] Lookup: pKi / Tumour suppressor p53/oncoprotein Mdm2 (Homo sapiens) / `COc1cc(C(=O)O)ccc1N1CN2[C@@H](CC3(C)CCOCC3)[C@@]3(CNc4cc(Cl)ccc43)[C@@H](c3cccc(Cl)c3)[C@@H]2C1=O`
[reply] 8.57
